# credit: the supplement of paper PMC10567573

B1: NR2F2 (parent)
chain: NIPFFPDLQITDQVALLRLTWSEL

Variants of: B1
Test Protocol: protein stability index of a GFP-peptide fusion (GPS, HEK-293T) (PSI 1-6); higher = more stable;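 also: lentivirally expressed fusions sorted by FACS into six bins by GFP to DsRed ratio, PSI derived from sequencing read proportions per bin multiplied by bin number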
Run Parameters: c terminus: a fixed tail appended
Kindly return Criterion met if reported protein stability index is no lower than 2; return Criterion not met if it is lower.

Mutation Label: T20K
Answer Label: Criterion not met
//
Mutation Label: L16S
Answer Label: Criterion met
//
Mutation Label: I2K
Answer Label: Criterion met
//
Mutation Label: R18W
Answer Label: Criterion met
//
Mutation Label: N1P
Answer Label: Criterion met
//
Mutation Label: I2L
Answer Label: Criterion not met
//
Mutation Label: I2Q
Answer Label: Criterion not met
//
Mutation Label: R18D
Answer Label: Criterion not met
//
Mutation Label: S22P
Answer Label: Criterion not met
//
Mutation Label: I10V
Answer Label: Criterion met
//
Mutation Label: D12K
Answer Label: Criterion met
//
Mutation Label: T11A
Answer Label: Criterion met
//
Mutation Label: L8N
Answer Label: Criterion not met
//
Mutation Label: S22M
Answer Label: Criterion met
//
Mutation Label: A15M
Answer Label: Criterion met
//
Mutation Label: L17Y
Answer Label: Criterion met
//
Mutation Label: L24D
Answer Label: Criterion met
//
Mutation Label: S22I
Answer Label: Criterion met
//
Mutation Label: P3S
Answer Label: Criterion not met
